EXPERIMENTAL_TARGET: NVL-SNAP (recombinant NVL WT; SNAP-NVL-3xFlag) (Homo sapiens, UniProt O15381, R403W)
TEST: in-cell UV photocrosslinking, click dye, gel fluorescence of purified NVL

COMPOUND	EC50
C#CCOCCN1C(=O)c2ccccc2Sc2cc(NC(=O)c3ccc(N=[N+]=[N-])cc3)ccc21 [MM514]	> 17 µM

* * *

EXPERIMENTAL_TARGET: NVL-SNAP (recombinant NVL WT; SNAP-NVL-3xFlag) (Homo sapiens, UniProt O15381)
Sequence (O15381 1-856): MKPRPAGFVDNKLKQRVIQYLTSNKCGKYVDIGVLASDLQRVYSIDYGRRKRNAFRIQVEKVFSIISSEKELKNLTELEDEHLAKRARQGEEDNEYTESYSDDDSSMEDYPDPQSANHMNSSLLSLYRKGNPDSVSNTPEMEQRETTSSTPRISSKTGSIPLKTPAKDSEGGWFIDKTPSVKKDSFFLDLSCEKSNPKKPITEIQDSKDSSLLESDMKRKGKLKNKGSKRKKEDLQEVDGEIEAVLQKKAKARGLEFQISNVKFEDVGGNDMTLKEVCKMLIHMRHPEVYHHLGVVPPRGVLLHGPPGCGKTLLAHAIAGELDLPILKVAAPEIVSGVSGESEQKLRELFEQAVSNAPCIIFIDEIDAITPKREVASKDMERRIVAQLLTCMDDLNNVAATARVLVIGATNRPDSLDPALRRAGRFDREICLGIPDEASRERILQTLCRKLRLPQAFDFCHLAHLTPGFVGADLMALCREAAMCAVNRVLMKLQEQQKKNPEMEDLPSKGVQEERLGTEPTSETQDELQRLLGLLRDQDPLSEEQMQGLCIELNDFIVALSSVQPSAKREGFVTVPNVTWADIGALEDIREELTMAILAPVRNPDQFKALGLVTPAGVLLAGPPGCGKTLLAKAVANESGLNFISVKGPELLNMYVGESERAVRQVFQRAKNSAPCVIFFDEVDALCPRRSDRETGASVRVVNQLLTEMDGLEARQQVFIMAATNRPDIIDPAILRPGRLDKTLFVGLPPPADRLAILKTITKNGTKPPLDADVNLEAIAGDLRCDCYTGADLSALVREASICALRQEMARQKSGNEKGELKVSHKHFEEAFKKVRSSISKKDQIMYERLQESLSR
TEST: competition of MM514 photocrosslinking to NVL-SNAP
Format: cell-based

LINE_NOTATION	EXPERIMENTAL_TARGET	EC50 [µM]
COCCN1C(=O)c2ccccc2Sc2cc(NC(=O)c3ccccc3OC)ccc21	NVL-SNAP (recombinant NVL WT; SNAP-NVL-3xFlag) (Homo sapiens, UniProt O15381)	26
COCCN1C(=O)c2ccccc2Sc2cc(NC(=O)c3ccc(OC)cc3)ccc21	NVL-SNAP (recombinant NVL WT; SNAP-NVL-3xFlag) (Homo sapiens, UniProt O15381)	2.6
